Known Barnyardgrass plant response rating of a selection of compounds
Tested on: barnyardgrass (Echinochloa crus-galli)
PROTOCOL NOTES: Test A postemergence application, visual injury rating 0-100
Format: in vivo
STUDY CONDITIONS: Postemergence, 1000 g ai/ha, 0 to 100 scale, 10 days

>  <COMPOUND>
CSCCOC(=O)[C@@H]1C=C[C@H](NC(=O)C2(C)CN(c3cc(F)cc(F)c3)C(=O)O2)C1 (stereo partly shown) [Compound 48]

>  <Barnyardgrass plant response rating>
90

$$$$
>  <COMPOUND>
CCCS(=O)(=O)NC(=O)C1C=CC(NC(=O)C2(C)CN(c3cc(F)cc(F)c3)C(=O)O2)C1 (stereo not shown) [Compound 50]

>  <Barnyardgrass plant response rating>
90

$$$$
>  <COMPOUND>
COC(=O)C1=CCC(NC(=O)C2(C)CN(c3cc(F)cc(F)c3)C(=O)N2)C1 (mixture of isomers) [Compound 181]

>  <Barnyardgrass plant response rating>
90

$$$$
>  <COMPOUND>
CC1(C(=O)NC2C=CC(C(=O)O)C2)CN(c2cc(F)cc(F)c2)C(=O)N1 (stereo not shown) [Compound 179]

>  <Barnyardgrass plant response rating>
100

$$$$

* * *

Tested on: kochia (Bassia scoparia)
PROTOCOL NOTES: Test A postemergence application, visual injury rating 0-100
Format: in vivo
STUDY CONDITIONS: Postemergence, 125 g ai/ha, 10 days; 0 is no effect, 100 is complete control
MEASURE: Kochia plant response rating (0 to 100 scale)

>  <COMPOUND>
CC(C)OC(=O)C1=CCC(NC(=O)C2(C)CN(c3cc(Cl)cc(Cl)c3)C(=O)O2)C1 (stereo not shown) [Compound 70]

>  <MEASURED TARGET>
kochia (Bassia scoparia)

>  <EXPERIMENTAL VALUE>
80

$$$$
>  <COMPOUND>
CC1(C(=O)NC2CC=C(C(=O)OCC(F)(F)F)C2)CN(c2cc(F)cc(F)c2)C(=O)O1 (single isomer, unassigned) [Compound 24]

>  <MEASURED TARGET>
kochia (Bassia scoparia)

>  <EXPERIMENTAL VALUE>
90

$$$$
>  <COMPOUND>
COC(=O)[C@H]1C[C@@H](NC(=O)C2(C)CN(c3cc(F)cc(F)c3)C(=O)O2)[C@H]2C[C@H]21 (stereo partly shown) [Compound 176]

>  <MEASURED TARGET>
kochia (Bassia scoparia)

>  <EXPERIMENTAL VALUE>
90

$$$$
>  <COMPOUND>
CSCCOC(=O)C1=CCC(NC(=O)C2(C)CN(c3cc(F)cc(F)c3)C(=O)O2)C1 (stereo not shown) [Compound 22]

>  <MEASURED TARGET>
kochia (Bassia scoparia)

>  <EXPERIMENTAL VALUE>
90

$$$$
>  <COMPOUND>
CNC(=O)C1CC(NC(=O)C2(C)CN(c3cc(F)cc(F)c3)C(=O)O2)CO1 (stereo not shown) [Compound 8]

>  <MEASURED TARGET>
kochia (Bassia scoparia)

>  <EXPERIMENTAL VALUE>
20

$$$$
>  <COMPOUND>
CC(C)COC(=O)C1=CCC(NC(=O)C2(C)CN(c3cc(F)cc(F)c3)C(=O)O2)C1 (stereo not shown) [Compound 16]

>  <MEASURED TARGET>
kochia (Bassia scoparia)

>  <EXPERIMENTAL VALUE>
70

$$$$
>  <COMPOUND>
CCS(=O)(=O)NC(=O)C1C=CC(NC(=O)C2(C)CN(c3cc(F)cc(F)c3)C(=O)O2)C1 (stereo not shown) [Compound 81]

>  <MEASURED TARGET>
kochia (Bassia scoparia)

>  <EXPERIMENTAL VALUE>
90

$$$$
